- Tested on: Luc-eGFP mRNA
- experiment summary: Determination of encapsulation efficiency of mRNAs (Quant-iT RiboGreen RNA kit)
- Assay type: physicochemical
- run parameters: LNP ionizable lipid:DSPC:cholesterol:DSPE-PEG2000 = 50:10:39.5:0.5; Luc-eGFP mRNA
recorded metric: Nucleic Acid Encapsulation Efficiency (%)
Entry rule: numbers only, all in %.

Illustrative cases are given below, each with its answer.
CCCCCCCCCOC(=O)CCCCCCCN(CCCCCCCC(=O)OC(CCCCCCCC)CCCCCCCC)CCOC(=O)NCCN(C)CC [Compound 15]    98.2
CCCCCCCCCOC(=O)CCCCCCCN(CCCCCCCC(=O)OC(CCCCCCCC)CCCCCCCC)CCOC(=O)NCCCN(C)C [Compound 17]    99.4

Field request: Nucleic Acid Encapsulation Efficiency | item: CCCCCCCCCOC(=O)CCCCCCCN(CCCCCCCC(=O)OC(CCCCCCCC)CCCCCCCC)CCOC(=O)NCCN(CC)CC [Compound 18] 96.0

// query Nucleic Acid Encapsulation Efficiency value for entry CCCCCCCCC(CCCCCC)C(=O)OCCCCCCN(CCCCCCOC(=O)C(CCCCCC)CCCCCCCC)CCOC(=O)NCCN(C)CC (centres unmarked) [Compound 2] 99.3

Would you kindly share the measured Nucleic Acid Encapsulation Efficiency for CCCCC/C=C\C/C=C\CCCCCCCCC(CCCCCCCC/C=C\C/C=C\CCCCC)OC(=O)CCCN(C)C [MC3, DLin-MC3-DMA, reference compound] ? 96.6

----------
- experiment summary: Determination of particle size and polydispersity index of lipid nanoparticles (Malvern particle size analyzer)
- Assay type: physicochemical
- run parameters: LNP ionizable lipid:DSPC:cholesterol:DSPE-PEG2000 = 50:10:39.5:0.5; Luc-eGFP mRNA
recorded metric: PDI
// return just the number, without any unit appended

Field: example entries. Status: answers known.
CCCCCCCCC(CCCCCC)C(=O)OCCCCCCN(CCCCCCOC(=O)C(CCCCCC)CCCCCCCC)CCOC(=O)NCCN(C)CC (centres unmarked)    0.19
CCCCCCCCCOC(=O)CCCCCCCN(CCCCCCCC(=O)OC(CCCCCCCC)CCCCCCCC)CCOC(=O)NCCCN(C)C    0.36

PDI lookup needed for CCCCC/C=C\C/C=C\CCCCCCCCC(CCCCCCCC/C=C\C/C=C\CCCCC)OC(=O)CCCN(C)C [MC3, DLin-MC3-DMA, reference compound] , thanks. 0.24

Quick one: PDI of CCCCCCCCCOC(=O)CCCCCCCN(CCCCCCCC(=O)OC(CCCCCCCC)CCCCCCCC)CCOC(=O)NCCN(C)CC ? 0.22

Name the reported PDI value associated with the molecule CCCCCCCCCOC(=O)CCCCCCCN(CCCCCCCC(=O)OC(CCCCCCCC)CCCCCCCC)CCOC(=O)NCCN(CC)CC 0.14

----------
- experiment summary: Determination of particle size and polydispersity index of lipid nanoparticles (Malvern particle size analyzer)
- Format: physicochemical
- run parameters: LNP ionizable lipid:DSPC:cholesterol:DSPE-PEG2000 = 50:10:39.5:0.5; Luc-eGFP mRNA
Rule: 1.0 for Particle Size not less than 100 nm, 0.0 for anything less.

These recorded examples may help you get a feel for the data.
CCCCCCCCCOC(=O)CCCCCCCN(CCCCCCCC(=O)OC(CCCCCCCC)CCCCCCCC)CCOC(=O)NCCCN(C)C    0.0
CCCCCCCCC(CCCCCC)C(=O)OCCCCCCN(CCCCCCOC(=O)C(CCCCCC)CCCCCCCC)CCOC(=O)NCCN(C)CC (centres unmarked)    1.0
CCCCC/C=C\C/C=C\CCCCCCCCC(CCCCCCCC/C=C\C/C=C\CCCCC)OC(=O)CCCN(C)C [MC3, DLin-MC3-DMA, reference compound]    1.0
CCCCCCCCCOC(=O)CCCCCCCN(CCCCCCCC(=O)OC(CCCCCCCC)CCCCCCCC)CCOC(=O)NCCN(CC)CC    1.0

Please turn your attention to the following entry.
Check if Particle Size >= 100 nm (inclusive). Item: CCCCCCCCCOC(=O)CCCCCCCN(CCCCCCCC(=O)OC(CCCCCCCC)CCCCCCCC)CCOC(=O)NCCN(C)CC 1.0
